TARGET OR TEST SYSTEM: D(2) dopamine receptor (Rattus norvegicus, UniProt P61169)
Sequence (P61169 whole entry): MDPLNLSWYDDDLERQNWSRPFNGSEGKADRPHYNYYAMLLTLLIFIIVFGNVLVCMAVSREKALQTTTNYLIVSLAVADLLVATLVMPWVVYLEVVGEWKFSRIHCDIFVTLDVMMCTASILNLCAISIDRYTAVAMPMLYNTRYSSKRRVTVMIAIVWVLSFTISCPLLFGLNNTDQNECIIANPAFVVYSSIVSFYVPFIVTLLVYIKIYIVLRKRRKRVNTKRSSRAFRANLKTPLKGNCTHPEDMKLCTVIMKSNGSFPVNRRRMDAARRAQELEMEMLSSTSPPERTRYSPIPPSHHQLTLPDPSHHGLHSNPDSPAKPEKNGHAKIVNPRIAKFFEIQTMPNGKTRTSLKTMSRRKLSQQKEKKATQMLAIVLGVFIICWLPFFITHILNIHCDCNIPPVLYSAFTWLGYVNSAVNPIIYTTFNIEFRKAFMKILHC
PROTOCOL TEXT: Binding affinity towards rat dopamine D2 receptor using [11C] radiotracer
VALUE KIND: Ki (nM)
Give bare numbers, in nM.

[
  {
    "COMPOUND STRING": "COc1cccc2cc(C(=O)NCCCCN3CCN(c4cccc(Cl)c4Cl)CC3)oc12",
    "SCALE UNIT": "nM",
    "Ki": 720
  }
]

Report Ki for COc1c(C(=O)NCCCCN2CCN(c3cccc(Cl)c3Cl)CC2)ccc2ccccc12 please.
720

====

Answer each item with its documented Ki.
TARGET OR TEST SYSTEM: Sigma non-opioid intracellular receptor 1 (Rattus norvegicus)
Sequence (Q9R0C9 whole entry): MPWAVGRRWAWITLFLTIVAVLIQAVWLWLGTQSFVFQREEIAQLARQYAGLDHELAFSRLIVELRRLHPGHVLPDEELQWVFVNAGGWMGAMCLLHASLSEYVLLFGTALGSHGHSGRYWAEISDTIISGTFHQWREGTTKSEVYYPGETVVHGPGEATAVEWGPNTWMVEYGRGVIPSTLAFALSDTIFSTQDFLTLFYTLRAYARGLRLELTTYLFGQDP
PROTOCOL TEXT: Binding affinity for rat Opioid receptor sigma 1 using [11C] radiotracer
Answers are plain numbers, in µM.

[
  {
    "COMPOUND STRING": "COc1cccc2cc(C(=O)NCCCCN3CCN(c4cccc(Cl)c4Cl)CC3)oc12",
    "TARGET OR TEST SYSTEM": "Sigma non-opioid intracellular receptor 1 (Rattus norvegicus)",
    "Ki (µM)": 0.18
  }
]

Query molecule follows.
Report Ki for COc1c(C(=O)NCCCCN2CCN(c3cccc(Cl)c3Cl)CC2)ccc2ccccc12 please.
0.342

Just for reference, ChEMBL document CHEMBL1140382 is where these values come from.
